# System: SNB-19
# measurement description: NCI tumour cell line growth inhibition, 48 h
The source made the active and inactive calls. Cut-off read from the data, not from the text of the source: active = GI50 up to about 1.1 µM and inactive = higher.
# GI50 annotations

Observe how each entry below is paired with its result.
[in] What value of measured GI50 is listed for NC(Cc1ccc(O)cn1)C(=O)NC(C(=O)O)c1ccccc1 (stereo not given) ?
[out] > 100 µM (inactive)

[in] Next up: "N#C/C=c1/c2ccccc2n2nc3ccccc3c12"
[out] 16 µM (inactive)

[in] Field entry: "CNC(=O)N1CN(c2ccccc2)C2(CCN(CCCC(=O)c3ccc(F)cc3)CC2)C1=O"
[out] 17.3 µM (inactive)

[in] "Cn1c2c(c3ccccc31)CCN(CCCN1CCN(c3cccc(Cl)c3)CC1)C2=O" ?
[out] 27.4 µM (inactive)

The record that follows has no GI50 shown yet.
[in] Find the recorded GI50 belonging to COC(=O)C1Cc2c([nH]c3ccccc23)-c2[nH]c3ccccc3c2CC(NC(C)=O)C(=O)N2CCCC2C(=O)N1 (stereo not given) and report it.
[out] > 100 µM (inactive)

====

# Tested on: RPMI-8226
# measurement description: NCI tumour cell line growth inhibition, 48 h
Calls of active or inactive are those of the source. Rule as the data show it: active = GI50 up to about 1.1 µM and inactive = higher.
Use one of these outcomes when replying: 1 (active), 0 (inactive)

Some entries whose results are on file:
[in] Kindly provide the recorded test outcome for the following compound: "COC(=O)c1cc(OC(C)=O)c2c(OC)ccc(OC)c2c1"
[out] 0

[in] Same lookup for Clc1ccc(C2=NOC3C4CCC(C4)C23)cc1 (stereo not given) , please.
[out] 0

[in] Record: "O=C(C1=CCC2(CC1)OCCO2)N(Cc1ccccc1)c1ccccc1I"
[out] 0

[in] Entry to check: "O=C(NCCCCCCNC(=O)c1cccc2ccccc12)c1cccc2ccccc12"
[out] 0

[in] Entry "Cc1ccc(-c2nnc(-c3ccc4ccccc4c3)o2)cc1" please
[out] 0

***
[in] Given "CC[C@H](C)C(=O)O[C@H]1CCC=C2C=C[C@H](C)[C@H](CC[C@@H]3C[C@@H](O)CC(=O)O3)[C@H]21" , state the outcome it received in this test.
[out] 0

[in] Proceed to "CC(C)C1=C(Cc2ccccc2)C(=O)O/C1=C\c1ccc(O)c(Cl)c1"
[out] 0

[in] Quick one: "CC[C@H]1C[C@@H](O)[C@@H]2[C@H](O)[C@H](O)CN2C1"
[out] 0

[in] Another compound to look at: "O=C1C=CC(=O)c2c1ccc1c3ccccc3n(Cc3ccccc3)c21"
[out] 1

[in] // query: "O=C(C/N=C(\CN(c1ccccc1)c1ccccc1)Oc1c(Cl)cc(Cl)cc1Cl)n1cnc2ccccc21"
[out] 0

====

# System: HOP-92
# measurement description: NCI tumour cell line growth inhibition, 48 h
Activity calls are given as the source filed them. Cut-off read from the data, not from the text of the source: active = GI50 up to about 1.1 µM and inactive = higher.
Mark one answer only. Choices: label 1 = active, label 0 = inactive

[in] // return assay outcome for "COc1cc(OC)c(OC)cc1/C=C\c1nccc2ccccc12"
[out] label 0

Further cases:
[in] Recorded test call requested for "CC1(C)O[C@@H](CBr)C[C@H](C[C@H]2C[C@@H](O)C[C@@H](CCOCc3ccccc3)O2)O1"
[out] label 0

[in] For "CC(=O)O[C@H]1C(=O)[C@@]2(C)[C@H]([C@H](OC(=O)c3ccccc3)[C@]3(O)C[C@H](OC(=O)[C@H](O)[C@@H](NC(=O)c4ccccc4)c4ccc5ccccc5c4)C(C)=C1C3(C)C)[C@]1(OC(C)=O)CO[C@@H]1C[C@@H]2O" then?
[out] label 0

[in] # iterate: CCOC(=O)/C=C1/Oc2ccccc2C1(C)O (centres undefined)
[out] label 0

[in] Also, "Cc1cc(O)nc(CNC(=O)c2cccc3ccccc23)n1" please.
[out] label 0

[in] Check COCC([C@@H](O)C(O)C(=O)NCC[C@@H](C)c1nc(/C=C/CC2OC3(C[C@H](O)C2C)OC(C(C[C@H](O)C(C)[C@H](O)C(C)/C=C(C)/C(C)=C/C=C/C(C)=C/C#N)OC)[C@@H](OP(=O)(O)O)C3(C)C)co1)N(C)C (some centres undefined) too.
[out] label 1

[in] Also need "O=c1oc2ccc3ccccc3c2cc1-c1nc2ccccc2o1" , thanks.
[out] label 0

[in] Queued: CC(C)=C1C2CC3(C)CCC2(C)CCC13.CC1=CCC2C3(C)CCC2(C(C)C)C1C3 (centres undefined)
[out] label 0

[in] Also, "O=C(CNc1ccccc1[N+](=O)[O-])Nn1c(-c2ccccc2)nc2ccccc2c1=O" please.
[out] label 0

[in] Note, next up: "COc1ccc([C@@H]2CC(=O)N2)cc1"
[out] label 0

[in] And then C/C(=N\O)C1CC(CC(=O)O)C1(C)C (centres undefined) , what is it?
[out] label 0

[in] Further, for "Cc1c(Cl)cccc1NC(=O)C(=O)C1C(=O)NC(=O)NC1=O" ?
[out] label 0

[in] Same question, "O=C1C(N2CCOCC2)=C(Cl)C(=O)c2ncccc21" this time
[out] label 0

[in] Input "CN(C)c1ccc(/C=C/C(=O)c2ccc(O)cc2)cc1"
[out] label 0

[in] Next up: CCOC(=O)N1CCC(=O)C[C@@H]1C/C=C/P1(=O)O[C@H](c2ccccc2)C(C)N1C(C)C (some centres undefined)
[out] label 0

[in] Further, for C=CC(Br)(CBr)CCC(Br)C(C)(C)Cl (centres undefined) ?
[out] label 0

[in] Check CC1=NN(C(=O)CC(=O)Nc2cccc(C)c2)C(=O)C1/N=N\c1ccc(S(=O)(=O)c2ccc(/N=N/C3C(=O)N(C(=O)CC(=O)Nc4cccc(C)c4)N=C3C)cc2)cc1 (centres undefined) too.
[out] label 0

[in] Would you mind doing "N/C(=N\N=C\c1c[nH]c2ccccc12)Nc1ccccc1" as well?
[out] label 1

[in] And then "O=[N+]([O-])c1ccccc1CSc1nc(O)c2nc[nH]c2n1" , what is it?
[out] label 0

====

# Tested on: HT-29
# measurement description: NCI tumour cell line growth inhibition, 48 h
Activity calls are given as the source filed them. No stated cut-off is given here; in the data, active = GI50 up to about 1.1 µM and inactive = higher.
value type: GI50

These recorded examples may help you get a feel for the data.
[in] # returns recorded GI50 (system: HT-29) for "COc1ccccc1/C=C/c1cnccn1"
[out] > 10 µM (inactive)

[in] Can you check NC(=O)c1ccccc1NC(=O)C(=O)C(C(=O)c1ccc2ccccc2c1)C1OC(=O)c2ccccc21 (centres undefined) next?
[out] 27.8 µM (inactive)

[in] Next molecule up: "c1ccc([C@@H]2N[C@@]3(CO[Si](c4ccccc4)(c4ccccc4)c4ccccc4)CC[C@H]4CN[C@@H]2[C@H]43)cc1"
[out] 2.55 µM (inactive)

[in] Same for NC(Cc1ccccc1)C(=O)OCN1C(=O)C2C3C=CC(C2C1=O)C1C2C(=O)N(COC(=O)C(N)Cc4ccccc4)C(=O)C2C31 (centres undefined)
[out] 31.8 µM (inactive)

[in] Try this molecule too: "CC[C@H](C)C(=O)O[C@H]1CCC=C2C=C[C@H](C)[C@H](CC[C@@H]3C[C@@H](O)CC(=O)O3)[C@H]21"
[out] 36.7 µM (inactive)

[in] # repeat for CCOC(=O)C1(C/C=C/CCl)CCCC1=O (centres undefined)
[out] 24.2 µM (inactive)

[in] Consider next the molecule "Cc1ccc(C2=C(C#N)C(=O)N3CCN=C3S2)cc1" in the same way.
[out] 57.1 µM (inactive)

[in] How about "Cc1cc2ccccc2n2c1nc1ccc(O)cc12" ?
[out] > 10 µM (inactive)

Would you kindly look at the next entry?
[in] Given the entry "CCCCCCc1nn2c(-c3ccncc3)nnc2s1" , what GI50 was observed with HT-29?
[out] > 10 µM (inactive)

====

# Tested on: MDA-MB-231
# measurement description: NCI tumour cell line growth inhibition, 48 h
Calls of active or inactive are those of the source. No stated cut-off is given here; in the data, active = GI50 up to about 1.1 µM and inactive = higher.
value type: GI50

Check out these entries, answers already filled in.
[in] Give its GI50 value. Item: C=C1CC(Cn2ccc(=O)[nH]c2=O)(c2ccc(OC)cc2)OC1=O (stereo not given)
[out] 16.6 µM (inactive)

[in] Now consider COc1ccc(/C=C2\CC3C4CC=C5C[C@@H](O)CC[C@]5(C)C4CC[C@]3(C)\C2=N\O)cc1OC (stereo not given in full) and answer again.
[out] 16.2 µM (inactive)

[in] Param item: CCC12CN(C(=O)OC)C3C(Br)C1CCC(=O)C32 (stereo not given)
[out] > 100 µM (inactive)

Then there is this compound:
[in] Field request: GI50 | item: O=C(O)C(Cc1ccc(O)cn1)NC(=O)C(F)(F)F (stereo not given)
[out] > 100 µM (inactive)

====

# System: HCT-116
# measurement description: NCI tumour cell line growth inhibition, 48 h
Calls of active or inactive are those of the source. Rule as the data show it: active = GI50 up to about 1.1 µM and inactive = higher. Peptide text beside a SMILES is read from it. * marks the point of attachment. Cbz = O=C(OCc1ccccc1)*
value type: GI50

[in] Reported GI50, molecule "CCO/N=C\c1ccc2oc(-c3ccccc3)cc(=O)c2c1" : ____
[out] 0.181 µM (active)

[in] // same read-out, input: "Cc1ccc(Nc2nc(=O)[nH]c(=O)[nH]2)cc1N=[N+]=[N-]"
[out] > 100 µM (inactive)

[in] Can you check "O=C(C1=CCC2(CC1)OCCO2)N(Cc1ccccc1)c1ccccc1I" next?
[out] 14.8 µM (inactive)

[in] Would you kindly repeat that for "O=C1N/C(=N/N=C/c2cccs2)N/C1=C\c1ccco1" ?
[out] 35.5 µM (inactive)

[in] Next entry: "OCCCCn1cnc2c(O)ncnc21"
[out] > 100 µM (inactive)

[in] What about this molecule? COC1C2C[C@@H](O)CCC2C(C(=O)OCCl)C[C@H]1O (stereo not given in full)
[out] > 100 µM (inactive)

More entries:
[in] Which GI50 value belongs to "N[C@@H](CSCSC[C@H](N)C(=O)O)C(=O)O" ?
[out] > 225 µM (inactive)

[in] Okay, and "O=C(c1ccccc1)c1ccc2[nH]c(-c3c(Cl)c(Cl)c(Cl)c(Cl)c3C(=O)N/N=C/c3cccc(Oc4ccccc4)c3)nc2c1" ?
[out] 76.6 µM (inactive)

[in] Please do the same for O=C(O)CCC(NC(=O)OCc1ccccc1)C(=O)NC(Cc1c[nH]cn1)C(=O)O (stereo not drawn) (Cbz-Glu-His-OH; configuration not given here) as well.
[out] > 100 µM (inactive)

[in] # iterate: "NS(=O)(=O)c1ccc(/N=N/c2ccc(O)c(O)c2)cc1"
[out] 9.71 µM (inactive)

All figures here come from ChEMBL document CHEMBL1201862.
